pKd by entry:
- tested.on: T1, human CD47 (human, UniProt Q08722 19-139)
- T1 construct: extracellular domain; also called CD47 ECD
- run.description: SPR, 25 C, 1:1 Langmuir fit
pKd: −log10 of the molar value.
reported.property: pKd

binder	reported.property	measured.result
SIRP-α D1 variant polypeptide of SEQ ID NO: 80 (receptor, engineered SIRP-α D1 domain) EEELQIIQPDKSVLVAAGETATLRCTITSLFPVGPIQWFRGAGPGRVLIYNQREGPFPRVTTVSDTTKRNNMDFSIRIGAITPADAGTYYCIKFRKGSPDDVEFKSGAGTELSVRAKPS	pKd	10.33
SIRP-α D1 variant polypeptide of SEQ ID NO: 63 (receptor, engineered SIRP-α D1 domain) EEELQIIQPDKSVSVAAGESAILHCTITSLFPVGPIQWFRGAGPARVLIYNQRQGPFPRVTTVSETTKRENMDFSISISNITPADAGTYYCVKFRKGSPDTEFKSGAGTELSVRAKPS	pKd	10.05
SIRP-α D1 variant polypeptide of SEQ ID NO: 75 (receptor, engineered SIRP-α D1 domain) EEELQVIQPDKSVLVAAGETATLRCTITSLFPVGPIQWFRGAGPGRELIYNQREGPFPRVTTVSDLTKRNNMDFSIRIGNITPADAGTYYCVKFRKGSPDDVEFKSGAGTELSVRAKPS	pKd	8.88
SIRP-α D1 variant polypeptide of SEQ ID NO: 77 (receptor, engineered SIRP-α D1 domain) EEELQIIQPDKSVLVAAGETATLRCTITSLFPVGPIQWFRGAGPGRVLIYNQRQGPFPRVTTVSDTTKRNNMDFSIRIGNITPADAGTYYCIKFRKGSPDDVEFKSGAGTELSVRAKPS	pKd	9.94
SIRP-α D1 variant polypeptide of SEQ ID NO: 57 (receptor, engineered SIRP-α D1 domain) EEELQIIQPDKSVSVAAGESAILHCTITSLIPVGPIQWFRGAGPARVLIYNQRQGPFPRVTTVSETTKRENMDFSISISNITPADAGTYYCIKFRKGSPDTEFKSGAGTELSVRAKPS	pKd	9.44
SIRP-α D1 variant polypeptide of SEQ ID NO: 73 (receptor, engineered SIRP-α D1 domain) EEELQVIQPDKSVLVAAGETATLRCTITSLFPVGPIQWFRGAGPGRELIYNQREGPFPRVTTVSDTTKRNNMDFSIRIGNITPADAGTYYCVKFRKGSPDDVEFKSGAGTELSVRAKPS	pKd	9.35
SIRP-α D1 variant polypeptide of SEQ ID NO: 66 (receptor, engineered SIRP-α D1 domain) EEELQVIQPDKSVSVAAGESAILHCTITSLFPVGPIQWFRGAGPARELIYNQREGPFPRVTTVSESTKRENMDFSISISNITPADAGTYYCVKFRKGSPDTEFKSGAGTELSVRAKPS	pKd	9.33
SIRP-α D1 variant polypeptide of SEQ ID NO: 64 (receptor, engineered SIRP-α D1 domain) EEELQVIQPDKSVSVAAGESAILHCTVTSLIPVGPIQWFRGAGPARELIYNQREGPFPRVTTVSESTKRENMDFSISISNITPADAGTYYCVKFRKGSPDTEFKSGAGTELSVRAKPS	pKd	8.26

Origin of measurements: patent US20200239543A1
